These entries and their values trace back to patent US20170260185A1.

molecular target: human ERG potassium channel (hERG) (Homo sapiens, UniProt Q12809); assay: cell-based
Sequence (Q12809 whole entry): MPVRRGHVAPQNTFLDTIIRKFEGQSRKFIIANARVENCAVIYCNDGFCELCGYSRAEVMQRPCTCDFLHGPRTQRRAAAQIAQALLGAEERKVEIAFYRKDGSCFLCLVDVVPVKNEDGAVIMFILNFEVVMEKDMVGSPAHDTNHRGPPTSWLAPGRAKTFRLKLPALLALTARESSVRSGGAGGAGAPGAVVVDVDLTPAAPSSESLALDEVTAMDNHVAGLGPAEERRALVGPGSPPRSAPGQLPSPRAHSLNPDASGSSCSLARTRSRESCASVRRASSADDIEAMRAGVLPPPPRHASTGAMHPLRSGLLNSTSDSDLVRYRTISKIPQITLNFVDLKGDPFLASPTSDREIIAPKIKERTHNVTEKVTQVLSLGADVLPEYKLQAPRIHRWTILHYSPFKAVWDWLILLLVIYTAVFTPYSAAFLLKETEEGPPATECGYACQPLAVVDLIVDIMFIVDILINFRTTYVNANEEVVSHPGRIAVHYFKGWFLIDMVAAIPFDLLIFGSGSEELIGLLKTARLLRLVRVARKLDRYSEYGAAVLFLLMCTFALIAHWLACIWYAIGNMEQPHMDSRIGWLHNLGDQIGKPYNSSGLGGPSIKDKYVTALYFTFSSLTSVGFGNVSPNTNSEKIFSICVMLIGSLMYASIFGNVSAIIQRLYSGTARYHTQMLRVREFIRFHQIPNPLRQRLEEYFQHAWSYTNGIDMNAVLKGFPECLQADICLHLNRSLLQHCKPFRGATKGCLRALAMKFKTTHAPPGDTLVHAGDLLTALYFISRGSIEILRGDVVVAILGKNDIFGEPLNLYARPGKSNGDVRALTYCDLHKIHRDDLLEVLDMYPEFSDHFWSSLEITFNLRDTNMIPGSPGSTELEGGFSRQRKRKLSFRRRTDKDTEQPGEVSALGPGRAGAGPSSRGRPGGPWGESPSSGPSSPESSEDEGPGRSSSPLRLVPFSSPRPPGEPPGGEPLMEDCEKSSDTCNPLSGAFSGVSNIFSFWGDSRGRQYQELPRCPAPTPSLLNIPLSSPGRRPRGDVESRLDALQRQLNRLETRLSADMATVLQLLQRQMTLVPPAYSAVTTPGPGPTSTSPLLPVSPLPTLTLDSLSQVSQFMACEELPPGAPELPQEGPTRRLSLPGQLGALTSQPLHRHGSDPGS
Listed here are molecules together with their documented IC50.
Measured quantity: IC50

>  <Molecule>
FC1=CCNC[C@]12CCN(C(c1ccc(F)cc1)c1ccc(F)cc1)C2 (single isomer, unassigned)

>  <Measured quantity>
IC50

>  <Reported result>
3160 nM

$$$$
>  <Molecule>
CN1CCC(=O)C2(CCN(C(c3ccc(F)cc3)c3ccc(F)cc3)C2)C1 (stereo not shown)

>  <Measured quantity>
IC50

>  <Reported result>
7940 nM

$$$$
>  <Molecule>
Fc1ccc(C(c2ccc(F)cc2)N2CCC3(CNCCO3)C2)cc1 (stereo not shown)

>  <Measured quantity>
IC50

>  <Reported result>
6310 nM

$$$$
>  <Molecule>
Fc1ccc(C(c2ccc(F)cc2)N2CC[C@]3(CNCCC3(F)F)C2)cc1 (single isomer, unassigned)

>  <Measured quantity>
IC50

>  <Reported result>
3160 nM

$$$$
>  <Molecule>
OC1CCNCC12CCN(C(c1ccc(F)cc1)c1ccc(F)cc1)C2 (stereo not shown)

>  <Measured quantity>
IC50

>  <Reported result>
2510 nM

$$$$
>  <Molecule>
O=C1CCNCC12CCN(C(c1ccc(F)cc1)c1ccc(F)cc1)C2 (stereo not shown)

>  <Measured quantity>
IC50

>  <Reported result>
2000 nM

$$$$
>  <Molecule>
Fc1ccc(C(c2ccc(F)cc2)N2CCC3(CC2)CNCCO3)cc1

>  <Measured quantity>
IC50

>  <Reported result>
3160 nM

$$$$
>  <Molecule>
ON=C1CCNCC12CCN(C(c1ccc(F)cc1)c1ccc(F)cc1)C2 (single isomer, unassigned)

>  <Measured quantity>
IC50

>  <Reported result>
2510 nM

$$$$
>  <Molecule>
CN1CCC(O)C2(CCN(C(c3ccc(F)cc3)c3ccc(F)cc3)C2)C1 (stereo not shown)

>  <Measured quantity>
IC50

>  <Reported result>
1580 nM

$$$$
>  <Molecule>
Fc1ccc(C(c2ccc(F)cc2)N2CCC3(CCNCC3)C2)cc1

>  <Measured quantity>
IC50

>  <Reported result>
2510 nM

$$$$

---

biological target: human dopamine transporter (DAT) (Homo sapiens, UniProt Q01959); construct: expressed in transfected cells; host or cells: CHO (hDAT-CHO), membrane preparation; assay: Scintillation Proximity Assay (SPA) competition binding, [3H]WIN-35,428, hDAT-CHO membranes; conditions: read-out: pIC50 DAT (converted)
Sequence (Q01959 whole entry): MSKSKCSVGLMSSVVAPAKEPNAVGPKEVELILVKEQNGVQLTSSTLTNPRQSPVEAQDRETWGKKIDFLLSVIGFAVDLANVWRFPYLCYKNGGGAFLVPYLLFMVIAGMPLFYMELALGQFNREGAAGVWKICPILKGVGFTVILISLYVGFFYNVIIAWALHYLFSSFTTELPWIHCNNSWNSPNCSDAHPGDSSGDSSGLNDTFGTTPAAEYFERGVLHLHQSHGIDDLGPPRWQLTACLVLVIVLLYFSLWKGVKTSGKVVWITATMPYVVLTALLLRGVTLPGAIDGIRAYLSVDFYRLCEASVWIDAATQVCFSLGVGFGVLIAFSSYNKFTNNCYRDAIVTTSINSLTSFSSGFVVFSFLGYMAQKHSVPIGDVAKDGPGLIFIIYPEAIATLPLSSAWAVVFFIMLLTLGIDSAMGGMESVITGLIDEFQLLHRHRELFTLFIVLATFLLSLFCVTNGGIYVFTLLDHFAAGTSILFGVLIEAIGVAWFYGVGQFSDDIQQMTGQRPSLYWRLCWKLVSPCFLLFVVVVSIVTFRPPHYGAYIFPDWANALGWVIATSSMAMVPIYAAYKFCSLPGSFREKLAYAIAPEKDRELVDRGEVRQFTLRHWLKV
Where a name gives a salt, the structure may show the parent alone.

>  <Compound>
Fc1ccc(C(c2ccc(F)cc2)N2CCCC3(CCNCC3)C2)cc1

>  <Measure unit>
nM

>  <IC50>
363

$$$$
>  <Compound>
O=C1CCNC[C@@]12CCN(C(c1ccc(F)cc1)c1ccc(F)cc1)C2 (single isomer, unassigned) [Example 9, dihydrochloride salt]

>  <Measure unit>
nM

>  <IC50>
263

$$$$
>  <Compound>
O=C1CCNC[C@@]12CCN(C(c1ccc(F)cc1)c1ccc(F)cc1)C2 (single isomer, unassigned) [Example 7]

>  <Measure unit>
nM

>  <IC50>
162

$$$$
>  <Compound>
Fc1ccc(C(c2ccc(F)cc2)N2CCC3(CCCNC3)CC2)cc1

>  <Measure unit>
nM

>  <IC50>
135

$$$$
>  <Compound>
O=C1CCNC[C@]12CCN(C(c1ccc(F)cc1)c1ccc(F)cc1)C2 (single isomer, unassigned) [Example 8]

>  <Measure unit>
nM

>  <IC50>
132

$$$$

---

# pIC50 per record follows
target: human serotonin transporter (SERT) (Homo sapiens)
Sequence (P31645 whole entry): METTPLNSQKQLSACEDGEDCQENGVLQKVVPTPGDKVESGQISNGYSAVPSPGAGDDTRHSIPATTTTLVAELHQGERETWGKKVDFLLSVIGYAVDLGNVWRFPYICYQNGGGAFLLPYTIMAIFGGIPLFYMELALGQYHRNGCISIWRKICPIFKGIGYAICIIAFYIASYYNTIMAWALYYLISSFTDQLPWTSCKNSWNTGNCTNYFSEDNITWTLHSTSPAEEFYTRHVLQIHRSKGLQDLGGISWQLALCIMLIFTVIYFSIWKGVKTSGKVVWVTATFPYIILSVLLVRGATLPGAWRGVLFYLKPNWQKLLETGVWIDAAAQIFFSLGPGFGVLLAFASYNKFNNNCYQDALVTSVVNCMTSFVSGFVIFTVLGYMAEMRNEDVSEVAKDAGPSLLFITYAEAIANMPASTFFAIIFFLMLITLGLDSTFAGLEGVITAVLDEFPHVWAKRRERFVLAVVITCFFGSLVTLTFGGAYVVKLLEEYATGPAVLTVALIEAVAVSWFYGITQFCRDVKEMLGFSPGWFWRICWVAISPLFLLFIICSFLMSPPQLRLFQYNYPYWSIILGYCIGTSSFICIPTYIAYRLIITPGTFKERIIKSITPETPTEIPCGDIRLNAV
pIC50: −log10 of the molar value. Where a name gives a salt, the structure may show the parent alone.

>  <Compound>
CN1CCC(=O)C2(CCN(C(c3ccc(F)cc3)c3ccc(F)cc3)C2)C1 (centres unmarked) [Example 2]

>  <pIC50>
4.66

$$$$
>  <Compound>
Fc1ccc(C(c2ccc(F)cc2)N2CCC3(CCNCC3)C2)cc1 [Example 27]

>  <pIC50>
5.46

$$$$
>  <Compound>
FC1=CCNC[C@]12CCN(C(c1ccc(F)cc1)c1ccc(F)cc1)C2 (single isomer, unassigned) [Example 18]

>  <pIC50>
5.03

$$$$
>  <Compound>
Fc1ccc(C(c2ccc(F)cc2)N2CCC3(CNCCO3)C2)cc1 (centres unmarked) [Example 29]

>  <pIC50>
5.16

$$$$
>  <Compound>
OC1CCNCC12CCN(C(c1ccc(F)cc1)c1ccc(F)cc1)C2 (centres unmarked) [Example 3]

>  <pIC50>
4.89

$$$$
>  <Compound>
Fc1ccc(C(c2ccc(F)cc2)N2CCC3(CC2)CNCCS3)cc1 [Example 32]

>  <pIC50>
5.63

$$$$
>  <Compound>
Fc1ccc(C(c2ccc(F)cc2)N2CCC3(CC2)CNCCO3)cc1 [Example 31]

>  <pIC50>
5.58

$$$$
>  <Compound>
O=C1CCNC[C@@]12CCN(C(c1ccc(F)cc1)c1ccc(F)cc1)C2 (single isomer, unassigned) [Example 9, dihydrochloride salt]

>  <pIC50>
4.97

$$$$

---

target: human dopamine transporter (DAT) (Homo sapiens); construct: expressed in transfected cells; host or cells: CHO (hDAT-CHO), membrane preparation; assay: Scintillation Proximity Assay (SPA) competition binding, [3H]WIN-35,428, hDAT-CHO membranes; details: read-out: pIC50 DAT (converted)
Below, each of the compounds is paired with its reported IC50 value.

>  <Compound>
O[C@@H]1CCNC[C@]12CCN(C(c1ccc(F)cc1)c1ccc(F)cc1)C2 (single isomer, unassigned) [Example 12]

>  <IC50 / nM>
302

$$$$
>  <Compound>
O=C1CCNCC12CCN(C(c1ccc(F)cc1)c1ccc(F)cc1)C2 (stereo not shown) [Example 1]

>  <IC50 / nM>
129

$$$$
>  <Compound>
Fc1ccc(C(c2ccc(F)cc2)N2CCC3(CCCNC3)C2)cc1 (stereo not shown) [Example 22]

>  <IC50 / nM>
110

$$$$
>  <Compound>
Clc1ccc(C(c2ccc(Cl)cc2)N2CCC3(CNCCO3)C2)cc1 (stereo not shown) [Example 30]

>  <IC50 / nM>
151

$$$$

---

Reported IC50 is given for each of the following compounds.
target: human dopamine transporter (DAT) (Homo sapiens); construct: expressed in transfected cells; host or cells: CHO (hDAT-CHO), membrane preparation; assay: Scintillation Proximity Assay (SPA) competition binding, [3H]WIN-35,428, hDAT-CHO membranes; conditions: read-out: pIC50 DAT (converted)
Structures can show the parent of a compound that is named as a salt.
Measured quantity: IC50

>  <Compound>
Fc1ccc(C(c2ccc(F)cc2)N2CCC3(CCNCC3)C2)cc1 [Example 27]

>  <Measured quantity>
IC50

>  <Reported result>
148 nM

$$$$
>  <Compound>
COC1CCNCC12CCN(C(c1ccc(F)cc1)c1ccc(F)cc1)C2 (mixture of isomers) [Example 5]

>  <Measured quantity>
IC50

>  <Reported result>
145 nM

$$$$
>  <Compound>
Fc1ccc(C(c2ccc(F)cc2)N2CCCC3(CCNC3)C2)cc1 (stereo not shown) [Example 24]

>  <Measured quantity>
IC50

>  <Reported result>
537 nM

$$$$
>  <Compound>
Clc1ccc(C(c2ccc(Cl)cc2)N2CCC3(CCNCC3)C2)cc1 [Example 28]

>  <Measured quantity>
IC50

>  <Reported result>
316 nM

$$$$
>  <Compound>
Fc1ccc(C(c2ccc(F)cc2)N2CCC3(CNCCO3)C2)cc1 (stereo not shown) [Example 29]

>  <Measured quantity>
IC50

>  <Reported result>
107 nM

$$$$
>  <Compound>
Fc1ccc(C(c2ccc(F)cc2)N2CCC3(CNCCC34OCCO4)C2)cc1 (stereo not shown) [Example 6]

>  <Measured quantity>
IC50

>  <Reported result>
309 nM

$$$$
>  <Compound>
CN1CCCC2(CCN(C(c3ccc(F)cc3)c3ccc(F)cc3)C2)C1 (stereo not shown) [Example 23]

>  <Measured quantity>
IC50

>  <Reported result>
115 nM

$$$$
>  <Compound>
O=C1CCNC[C@]12CCN(C(c1ccc(F)cc1)c1ccc(F)cc1)C2 (single isomer, unassigned) [Example 10, dihydrochloride salt]

>  <Measured quantity>
IC50

>  <Reported result>
148 nM

$$$$
>  <Compound>
CO/N=C1\CCNC[C@]12CCN(C(c1ccc(F)cc1)c1ccc(F)cc1)C2 (single isomer, unassigned) [Example 15]

>  <Measured quantity>
IC50

>  <Reported result>
204 nM

$$$$
>  <Compound>
CN1CCC(=O)C2(CCN(C(c3ccc(F)cc3)c3ccc(F)cc3)C2)C1 (stereo not shown) [Example 2]

>  <Measured quantity>
IC50

>  <Reported result>
372 nM

$$$$
>  <Compound>
OC1CNCCC12CCN(C(c1ccc(F)cc1)c1ccc(F)cc1)C2 (stereo not shown) [Example 21]

>  <Measured quantity>
IC50

>  <Reported result>
186 nM

$$$$
>  <Compound>
O[C@@H]1CCNC[C@@]12CCN(C(c1ccc(F)cc1)c1ccc(F)cc1)C2 (single isomer, unassigned) [Example 13]

>  <Measured quantity>
IC50

>  <Reported result>
174 nM

$$$$
>  <Compound>
O=C1CCNCC12CCN(C(c1ccc(Cl)cc1)c1ccc(Cl)cc1)C2 (stereo not shown) [Example 19]

>  <Measured quantity>
IC50

>  <Reported result>
204 nM

$$$$
>  <Compound>
O[C@@H]1CCNC[C@@]12CCN(C(c1ccc(F)cc1)c1ccc(F)cc1)C2 (single isomer, unassigned) [Example 14]

>  <Measured quantity>
IC50

>  <Reported result>
200 nM

$$$$
>  <Compound>
O[C@@H]1CCNC[C@]12CCN(C(c1ccc(F)cc1)c1ccc(F)cc1)C2 (single isomer, unassigned) [Example 11]

>  <Measured quantity>
IC50

>  <Reported result>
224 nM

$$$$
>  <Compound>
CN1CCC(O)C2(CCN(C(c3ccc(F)cc3)c3ccc(F)cc3)C2)C1 (stereo not shown) [Example 4]

>  <Measured quantity>
IC50

>  <Reported result>
195 nM

$$$$
